TESTED_ON: dAsCas12a K548R (Acidaminococcus sp., UniProt U2UMQ6 1-1307, K548R;D908A;E993A;D1235A)
ASSAY_NAME: Spec-seq (native PAGE EMSA with sequencing of bound and unbound); 25 mM Tris-HCl pH 7.4, 150 mM KCl, 5 mM MgCl2, 10% glycerol, 1 mM DTT, 40 ng/uL salmon sperm DNA; 400 nM Cas12a, 480 nM crRNA, 50 nM library, 37 C 1 h; native PAGE at room temperature; high values mean tight binding
TEST_PARAMETERS: protein: recombinant
Provide the reported binding signal of each item.
Answers are plain numbers, in lnKA.

Reference set (4 entries):
CTTT (dsDNA) DNA 1: GCTATCTAGTGCTCAGTACGCACTGCTTTAGGAAACTTCTGGCAGGACCAGGTCATGAGATCGGAAGAGCACACGTCTGAACTCCAGTCA DNA 2: TGACTGGAGTTCAGACGTGTGCTCTTCCGATCTCATGACCTGGTCCTGCCAGAAGTTTCCTAAAGCAGTGCGTACTGAGCACTAGATAGC RNA: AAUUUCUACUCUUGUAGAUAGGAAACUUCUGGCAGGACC; -8.41
TTCC (dsDNA) DNA 1: GCTATCTAGTGCTCAGTACGCACTGTTCCAGGAAACTTCTGGCAGGACCAGGTCATGAGATCGGAAGAGCACACGTCTGAACTCCAGTCA DNA 2: TGACTGGAGTTCAGACGTGTGCTCTTCCGATCTCATGACCTGGTCCTGCCAGAAGTTTCCTGGAACAGTGCGTACTGAGCACTAGATAGC RNA: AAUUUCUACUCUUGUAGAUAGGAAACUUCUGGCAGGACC; -6.53
GTTT (dsDNA) DNA 1: GCTATCTAGTGCTCAGTACGCACTGGTTTAGGAAACTTCTGGCAGGACCAGGTCATGAGATCGGAAGAGCACACGTCTGAACTCCAGTCA DNA 2: TGACTGGAGTTCAGACGTGTGCTCTTCCGATCTCATGACCTGGTCCTGCCAGAAGTTTCCTAAACCAGTGCGTACTGAGCACTAGATAGC RNA: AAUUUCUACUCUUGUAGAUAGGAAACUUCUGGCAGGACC; -8.38
CTTA (dsDNA) DNA 1: GCTATCTAGTGCTCAGTACGCACTGCTTAAGGAAACTTCTGGCAGGACCAGGTCATGAGATCGGAAGAGCACACGTCTGAACTCCAGTCA DNA 2: TGACTGGAGTTCAGACGTGTGCTCTTCCGATCTCATGACCTGGTCCTGCCAGAAGTTTCCTTAAGCAGTGCGTACTGAGCACTAGATAGC RNA: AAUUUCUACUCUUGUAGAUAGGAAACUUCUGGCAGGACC; -5.75

Quick note, binding signal for TTCG (dsDNA) DNA 1: GCTATCTAGTGCTCAGTACGCACTGTTCGAGGAAACTTCTGGCAGGACCAGGTCATGAGATCGGAAGAGCACACGTCTGAACTCCAGTCA DNA 2: TGACTGGAGTTCAGACGTGTGCTCTTCCGATCTCATGACCTGGTCCTGCCAGAAGTTTCCTCGAACAGTGCGTACTGAGCACTAGATAGC RNA: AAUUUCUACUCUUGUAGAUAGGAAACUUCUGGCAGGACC landed at -8.63
